- assay: Cellular viability assay (alamarBlue) in TZM-bl cells
- Assay type: cell-based
- setupConditions: human, 50% cytotoxic concentration
- Method: Before the antiviral activity screening, all spirocyclopentene-β-lactams were assayed for their in vitro cytotoxic activity (CC50) in TZM-bl cells (Table 4). […] The in vitro cytotoxicity of test compounds was evaluated in TZM-bl cells using alamarBlue cell viability reagent (Life Technologies, United States), according to the instructions of the manufacturer. […]
measurementLabel: CC50 (µM)
One number for each entry, in µM.

• Cc1ccc(COC(=O)C2=CCC3(C(=O)N4C(C(=O)OC(c5ccccc5)c5ccccc5)C(C)(C)SC43)C2C(=O)c2ccc(F)cc2)cc1 (stereo not shown) [Compound 14b] = 78.3
• COc1ccc(COC(=O)C2=CCC3(C(=O)N4C(C(=O)OC(c5ccccc5)c5ccccc5)C(C)(C)SC43)C2C(=O)c2ccc(Br)cc2)cc1 (stereo not shown) [Compound 14g] = 101
• COc1ccc(COC(=O)C2=CCC3(C(=O)N4C(C(=O)OC(c5ccccc5)c5ccccc5)C(C)(C)SC43)C2C(=O)c2ccc(F)cc2)cc1 (stereo not shown) [Compound 14a] = 75.1
• CCCCCOC(=O)C1=CCC2(C(=O)N3C(C(=O)OC(c4ccccc4)c4ccccc4)C(C)(C)SC32)C1C(=O)c1ccccc1 (stereo not shown) = 60.3

Fill in CC50 for each of the 3 compounds listed.
1. CC1(C)SC2N(C(=O)C23CC=C(C(=O)OCc2ccc(Cl)cc2)C3C(=O)c2ccccc2)C1C(=O)OC(c1ccccc1)c1ccccc1 (stereo not shown)
2. Cc1ccc(COC(=O)C2=CCC3(C(=O)N4C(C(=O)OC(c5ccccc5)c5ccccc5)C(C)(C)SC43)C2C(=O)c2ccc(Br)cc2)cc1 (stereo not shown) [Compound 14h]
3. CC(C)CCOC(=O)C1=CCC2(C(=O)N3C(C(=O)OC(c4ccccc4)c4ccccc4)C(C)(C)SC32)C1C(=O)c1ccccc1 (stereo not shown)

Given back:
54.1
72.1
53.4

----------
Answer each item with its documented CC50.
- assay: Cellular viability assay (alamarBlue) in TZM-bl cells
- Format: cell-based
- setupConditions: human, 50% cytotoxic concentration
Numbers only, in µM.

Solved entries (count: 4):
• Cc1ccc(COC(=O)C2=CCC3(C(=O)N4C(C(=O)OC(c5ccccc5)c5ccccc5)C(C)(C)SC43)C2C(=O)c2ccccc2)cc1 (stereo not drawn) [Compound 9j] = 60
• CC1(C)SC2N(C(=O)C23CC=C(C(=O)OC(c2ccccc2)c2ccccc2)C3C(=O)c2ccccc2)C1C(=O)OC(c1ccccc1)c1ccccc1 (stereo not drawn) [Compound 9g] = 45.3
• CC1(C)SC2N(C(=O)C23CC=C(C(=O)Oc2ccc4ccccc4c2)C3C(=O)c2ccccc2)C1C(=O)OC(c1ccccc1)c1ccccc1 (stereo not drawn) [Compound 9d] = 38
• CC1(C)SC2N(C(=O)C23C(C(=O)OCc2ccccc2)=CCC3C(=O)c2ccc(C(F)(F)F)cc2)C1C(=O)OC(c1ccccc1)c1ccccc1 (stereo not drawn) [Compound 13e] = 54.7

Fill in CC50 for each of the 2 compounds listed.
1. CC1(C)SC2N(C(=O)C23CC=C(C(=O)OCc2ccccc2)C3C(=O)c2ccc3ccccc3c2)C1C(=O)OC(c1ccccc1)c1ccccc1 (stereo not drawn) [Compound 12h]
2. CC(COC(=O)C1=CCC2(C(=O)N3C(C(=O)OC(c4ccccc4)c4ccccc4)C(C)(C)SC32)C1C(=O)c1ccccc1)c1ccccc1 (stereo not drawn) [Compound 9o]

Given back:
[73.6, 44.7]
